Each recorded value in this set is attributed to paper PMC5540273.

Please provide measured %Inh for the entries that follow.
Tested on: MKK7
Conditions: concentration: 1 μM, replicates: in singlicate; n = 1;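 note: KINOMEscan kinase panel screen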

Given COc1cc(Nc2nccc(N3CCC(NC(=O)c4cccc(NC(C)=O)c4)C3)n2)cc(OC)c1OC (stereo not drawn) [GSK1379754] , respond with its %Inh.
32%

Given `Cn1ccc2ncnc(Oc3ccc(NC(=O)Nc4ccncc4)c(Cl)c3)c21` , respond with its %Inh.
0%

Given Fc1ccc(-c2ncn(CCCN3CCOCC3)c2-c2cccnc2)cc1 [SB-211743] , respond with its %Inh.
8%

Given Nc1nc(-c2ccc3c(N)n[nH]c3c2)cc(N2CCCC2)n1 [GSK2227430] , respond with its %Inh.
0%

Given COc1ccc(Nc2ncc(C#N)c(Nc3ccccc3C(N)=O)n2)cc1N1CCN(C)CC1.Cl [GSK1558669] , respond with its %Inh.
0%

Given Cl.Oc1cccc(Nc2ccnc3cc(-c4ccncc4)ccc23)c1 [GW494601] , respond with its %Inh.
0%

Given COc1ccc(Nc2nccc(N3CCC(NC(=O)Nc4cccc(C(C)=O)c4)C3)n2)cc1 (stereo not drawn) [GSK1379731] , respond with its %Inh.
0%

Given Fc1ccc(-c2nn3c(OCC(F)(F)F)cccc3c2-c2ccncc2)cc1 [GW514784] , respond with its %Inh.
0%

Given COc1ccc(S(=O)(=O)NC2CCN(c3cc(C)nc(Nc4cccc(C#N)c4)n3)CC2)cc1.O=C(O)C(F)(F)F [GSK1653539] , respond with its %Inh.
0%

---

System: IRAK4
Settings: concentration: 1 μM, replicates: in singlicate; n = 1
Please provide measured %Inh for the entries that follow.
State the answer as a number, implicitly in %.

Given Cl.Nc1ncnc2occ(-c3ccc(NC(=O)Nc4cc(C(F)(F)F)ccc4F)cc3)c12 [SB-707548] , respond with its %Inh.
3

Given `COc1cc2c(cc1OCCN1CCN(C)CC1)ncc1c3ccc(C#N)cc3[nH]c21` , respond with its %Inh.
100

Given COc1ccc(S(=O)(=O)NC2CCN(c3cc(C)nc(Nc4cccc(C#N)c4)n3)CC2)cc1.O=C(O)C(F)(F)F [GSK1653539] , respond with its %Inh.
0

Given COCCNC(=O)c1ccc(-c2cc(C(=O)NC3CC3)cc(F)c2C)cc1 [GW868318] , respond with its %Inh.
13

Given N#Cc1ccc(-c2cc(-c3c[nH]nc3-c3ccccn3)ccn2)cc1 [GW693028] , respond with its %Inh.
22

Given Nc1nccc(-c2c(-c3ccc(F)cc3)ncn2C2CCN(CC(F)(F)F)CC2)n1 [SB-236560] , respond with its %Inh.
0

Given Fc1ccc(-c2ncn(CCCN3CCOCC3)c2-c2cccnc2)cc1 [SB-211743] , respond with its %Inh.
0

Given `Cn1ccc2ncnc(Oc3ccc(NC(=O)Nc4ccncc4)c(Cl)c3)c21` , respond with its %Inh.
7

Given `COc1cc2c(cc1OC[C@@H](O)CO)ncc1c3ccc(C#N)cc3[nH]c21` , respond with its %Inh.
99.9

---

System: AKT2
Conditions: concentration: 1 μM, replicates: in singlicate; n = 1
MEASURE_NAME: %Inh (%)
State the answer as a number, implicitly in %.

Given `O=C(c1ccc(-c2cc(-c3c[nH]nc3-c3ccccn3)ccn2)cc1)N1CCOCC1` , respond with its %Inh.
0

Given `COc1cc2ncn(-c3cc(OCc4sccc4Cl)c(C(N)=O)s3)c2cc1OC` , respond with its %Inh.
1

Given COc1ccc(Nc2nccc(N3CCC(NC(=O)Nc4cc(C)ccc4C)C3)n2)cc1 (centres unmarked) , respond with its %Inh.
10

Given `Cn1ccc2ncnc(Oc3ccc(NC(=O)Nc4ccncc4)c(Cl)c3)c21` , respond with its %Inh.
14

Given `Cc1c2ccc(N(C)c3ccnc(Nc4cccc(S(N)(=O)=O)c4)n3)cc2nn1Cc1ccccc1.Cl.Cl` , respond with its %Inh.
0
